# assay_method_text: Tmax in Sprague-Dawley rat at 5 mg/kg, po measured upto 24 hrs by LC-MS/MS analysis
# Assay type: ADME, organism-based
# stated_conditions: Sprague-Dawley, in vivo, read-out: Tmax
assay_readout: Tmax
Field note: include the unit after the figure.

The reported Tmax of the compound CCS(=O)(=O)NCc1ccc(Nc2ncc(C)c(-c3cnn(C(C)C)c3)n2)cc1 was 1 h

* * *

# assay_method_text: Selectivity ratio of IC50 for JAK3 (unknown origin) to IC50 for JAK2 (unknown origin)
Assign labels as follows, please: satisfied for Ratio IC50 below 50; not satisfied for Ratio IC50 equal to or exceeding 50.

Req: Take the molecule Cc1cnc(Nc2ccc(CNC(=O)/C=C/C(=O)c3ccccc3)cc2)nc1-c1cnn(C(C)C)c1 and say whether its Ratio IC50 is less than 50.
Resp: satisfied

Req: Hello, I'm reviewing records and need to know if Ratio IC50 of Cc1cnc(Nc2ccc(CNS(=O)(=O)C3CC3)cc2)nc1-c1cnn(C(C)C)c1 is below 50. Could you check?
Resp: not satisfied

Req: Does this molecule meet the criterion Ratio IC50 < 50? Cc1cnc(Nc2ccc(CNC(=O)C3CC3)cc2)nc1-c1cnn(C(C)C)c1
Resp: satisfied

Req: Given Cc1cnc(Nc2ccc3c(c2)CCN(C(=O)/C=C/CN(C)C)C3)nc1-c1cnn(C(C)C)c1 , is recorded Ratio IC50 strictly lower than 50?
Resp: satisfied

Req: Below 50 on Ratio IC50? Entry Cc1cnc(Nc2ccc(CNC(=O)CCl)cc2)nc1-c1cnn(C(C)C)c1
Resp: not satisfied

Req: Decide: Ratio IC50 of C=CC(=O)NCc1ccc(Nc2ncc(C)c(-c3cnn(C(C)C)c3)n2)cc1 strictly below 50?
Resp: satisfied

Req: Problem: For the molecule CCS(=O)(=O)NCc1ccc(Nc2ncc(C)c(-c3cnn(C(C)C)c3)n2)cc1 , is Ratio IC50 under 50?
Resp: satisfied

Req: Dear colleague, could you confirm whether Ratio IC50 of C=CS(=O)(=O)NCc1ccc(Nc2ncc(C)c(-c3cnn(C(C)C)c3)n2)cc1 falls below 50? Thanks.
Resp: not satisfied
